Assay: EMT-state selective cytotoxicity in co-culture – imaging, PC-3E GFP, TEM4-18 mCherry, primary screen (AID 1345086);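 further: cells exposed to compound for 72 h before imaging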
Conditions: PC-3E GFP / TEM4-18 mCherry co-culture, imaging cell counts; measured here: epithelial PC-3E GFP cell survival; at 1 µM
Quick reference for normalised cell number among some compounds
Measurement label: normalised cell number

>>> quantitative_result("COc1ccc2cc1Oc1ccc(cc1)C[C@H]1c3c(cc4c(c3Oc3cc5c(cc3OC)CCN(C)[C@@H]5C2)OCO4)CCN1C")
0.93
>>> quantitative_result("CN1CCC(=C2c3ccccc3CC(=O)c3sccc32)CC1")
1.17
>>> quantitative_result("O=C1c2ccccc2C(=O)C1c1ccccc1")
1.09
>>> quantitative_result("CN1CCN(CCCN2c3ccccc3Sc3ccc(Cl)cc32)CC1")
0.97
>>> quantitative_result("Cc1cc(N)c2ccccc2[n+]1CCCCCCCCCC[n+]1c(C)cc(N)c2ccccc21")
1.15
>>> quantitative_result("Cc1cccc(C)c1OCC(C)N (configuration not stated)")
1.13
>>> quantitative_result("NC(CO)C(=O)NNCc1ccc(O)c(O)c1O (configuration not stated)")
1.12
>>> quantitative_result("CCN(CC)C(C)CN1c2ccccc2Sc2ccccc21 (configuration not stated)")
1.09
>>> quantitative_result("COC1=C(OC)C(=O)C(CCCCCCCCCCO)=C(C)C1=O")
1.18
>>> quantitative_result("O=C(O)c1cc(=O)c2ccccc2o1")
0.88
>>> quantitative_result("O=C(O)CCC(=O)c1ccc(-c2ccccc2)cc1")
1.07
>>> quantitative_result("Clc1ccc(C(c2ccccc2Cl)C(Cl)Cl)cc1 (configuration not stated)")
1.11

###

Collected log fold change Tl+ flux values appear next to each entry.
Test system: R275C/Slo1WT/beta2
Test: BK channel mutant inhibitors and activators – cell-based, U2OS BacMam, thallium flux, beta subunits, selectivity assay, profiling panel (AID 1259406);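 further: initial slope of Thallos dye fluorescence rise after thallium is added; log ratio against the mean of 0.3% DMSO vehicle wells on the same plate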
Details: U2OS BacMam BK variants, at 30 µM
The source made the active and inactive calls.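 How the source made its calls: active means thallium flux through the channel raised or lowered by more than 3 SD from vehicle-only wells, actives on both sides; inactive means the rest.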
Measurement label: log fold change Tl+ flux

>>> result("CCc1nn(CCCN2CCN(c3cccc(Cl)c3)CC2)c(=O)n1CCOc1ccccc1")
"-0.00757 (inactive)"
>>> result("CC1(C)S[C@@H]2[C@H](N=CN3CCCCCC3)C(=O)N2[C@H]1C(=O)O")
"-0.0045 (inactive)"
>>> result("O=C(c1ccc(F)cc1)C1CCN(CCn2c(=S)[nH]c3ccccc3c2=O)CC1")
"0.0813 (active)"
>>> result("CC(C)(C(=O)c1cccnc1)c1cccnc1")
"0.0667 (inactive)"
>>> result("Cc1[nH]c(=O)c(C#N)cc1-c1ccncc1")
"0.0443 (inactive)"
>>> result("CCOc1cc(N)c(Cl)cc1C(=O)NCC1CN(Cc2ccc(F)cc2)CCO1 (stereo not drawn)")
"0.00286 (inactive)"
>>> result("O=C1Nc2ccc(Cl)cc2[C@@](C#CC2CC2)(C(F)(F)F)O1")
"-0.0224 (inactive)"
>>> result("O=C1CC2(CCCC2)CC(=O)N1CCCCN1CCN(c2ncccn2)CC1")
"-0.02 (inactive)"
>>> result("CNCC(O)c1ccc(O)c(O)c1 (stereo not drawn)")
"-0.0974 (inactive)"
>>> result("O=C(CCNNC(=O)c1ccncc1)NCc1ccccc1")
"0.0406 (inactive)"
>>> result("COc1cc2nc(N3CCN(C(=O)C4CCCO4)CC3)nc(N)c2cc1OC (stereo not drawn)")
"-0.0619 (inactive)"
>>> result("COc1cc2nc(N3CCN(C(=O)C4COc5ccccc5O4)CC3)nc(N)c2cc1OC (stereo not drawn)")
"0.00736 (inactive)"
>>> result("C[C@]12C[C@H](O)[C@H]3[C@@H](CCC4=CC(=O)CC[C@@]43C)[C@@H]1CC[C@@H]2C(=O)CO")
"0.00421 (inactive)"
>>> result("Cn1c(NCCN(CCO)CCCc2ccc([N+](=O)[O-])cc2)cc(=O)n(C)c1=O")
"0.0338 (inactive)"
>>> result("CN1CCN(C2=Nc3cc(F)ccc3Cc3ccccc32)CC1")
"0.0225 (inactive)"
>>> result("Nc1[nH]c(=O)ncc1F")
"-0.0674 (inactive)"
>>> result("Oc1ccc(C2CNCCc3c2cc(O)c(O)c3Cl)cc1 (stereo not drawn)")
"0.0233 (inactive)"
>>> result("COc1ccc(C2CNC(=O)C2)cc1OC1CCCC1 (stereo not drawn)")
"0.00671 (inactive)"
>>> result("Cc1cccc(C)c1NC(=O)C(C)N (stereo not drawn)")
"0.0922 (active)"
>>> result("CN1CCN(c2c(F)cc3c(=O)c(C(=O)O)cn4c3c2SCC4)CC1")
"-0.0231 (inactive)"
>>> result("CC(=O)OCC(=O)NCCCOc1cccc(CN2CCCCC2)c1")
"0.00881 (inactive)"
>>> result("C#C[C@]1(O)CC[C@H]2[C@@H]3[C@H](C)CC4=C(CCC(=O)C4)[C@H]3CC[C@@]21C")
"0.0272 (inactive)"
>>> result("CCc1oc2ccccc2c1C(=O)c1cc(Br)c(O)c(Br)c1")
"0.347 (active)"
